# test: Metabolic stability in rat liver microsomes assessed as compound remaining at 1 uM after 30 mins by HPLC-MS/MS analysis
# Format: ADME
# particulars: read-out: Stability
Label key: class 1 means remaining at 0.5 h, 1 µM under 50%; class 0 means remaining at 0.5 h, 1 µM of 50% or more.

O=C(Nc1nc(-c2ccccn2)cs1)c1cccc(Br)c1 | class 0
O=C(Nc1nc(-c2ccccn2)cs1)c1ccncc1 | class 1
O=C(Nc1nc(-c2ccccn2)cs1)c1ccccc1 | class 0
N#Cc1ccc(C(=O)Nc2nc(-c3ccccn3)cs2)cc1 | class 0
O=C(Nc1nc(-c2ccccn2)cs1)c1ccc(F)cc1 | class 0

Attention now shifts to the item below.
Bench note: check whether O=C(Nc1nc(-c2ccccn2)cs1)c1ccc(Cl)cc1 shows remaining at 0.5 h, 1 µM below 50% class 1

====

Documented remaining at 0.5 h, 1 µM across a set of molecules
# test: Metabolic stability in human liver microsomes assessed as compound remaining at 1 uM after 30 mins by HPLC-MS/MS analysis
# Type: ADME
# particulars: read-out: Stability
Respond with the bare value in %.

Use these answered entries as a reference point.
O=C(Nc1nc(-c2ccccn2)cs1)c1ccccc1 | 27.5
N#Cc1ccc(C(=O)Nc2nc(-c3ccccn3)cs2)cc1 | 24.1
O=C(Nc1nc(-c2ccccn2)cs1)c1ccc(Cl)cc1 | 8.4
O=C(Nc1nc(-c2ccccn2)cs1)c1ccc(F)cc1 | 14.2

Consider the additional molecule presented here.
# get_value(readout='remaining at 0.5 h, 1 µM', item= O=C(Nc1nc(-c2ccccn2)cs1)c1ccncc1 ) 53.8

====

# test: Metabolic stability in BALB/c mouse liver microsomes assessed as compound remaining at 1 uM after 30 mins by HPLC-MS/MS analysis
# Format: ADME, Microsome
# particulars: read-out: Stability
Documented remaining at 0.5 h, 1 µM across a set of compounds

O=C(Nc1nc(-c2ccccn2)cs1)c1cccc(Br)c1 | 82.4%
N#Cc1ccc(C(=O)Nc2nc(-c3ccccn3)cs2)cc1 | 1.61%
O=C(Nc1nc(-c2ccccn2)cs1)c1ccccc1 | 7.6%
O=C(Nc1nc(-c2ccccn2)cs1)c1ccc(Cl)cc1 | 1.33%
O=C(Nc1nc(-c2ccccn2)cs1)c1ccncc1 | 3.71%

Consider the additional compound presented here.
# get_value(readout='remaining at 0.5 h, 1 µM', item= O=C(Nc1nc(-c2ccccn2)cs1)c1ccc(F)cc1 ) 3.61%
